- measurement-notes: in vivo
- condition-set: rat, iv, 1 mg/kg
- Description: Volume of distribution at steady state was determined in rat after intravenous administration of 1 mg/kg compound
observed-property: Vd

# query-smiles, observed-property, value-measured
rows = [
    ("CCCNC(=O)c1cc(-c2ccc(Cl)cc2)c(-c2ccc(Cl)cc2Cl)nc1OCc1ccc(F)c(F)c1", "Vd", "0.4 L/kg"),
]

* * *

- measurement-notes: in vivo
- condition-set: rat, iv, 1 mg/kg

# query-smiles, clearance [mL/min/kg]
measured = [
    ("CCCNC(=O)c1cc(-c2ccc(Cl)cc2)c(-c2ccc(Cl)cc2Cl)nc1OCc1ccc(F)c(F)c1", 5.8),
]

* * *

- measurement-notes: in vivo
- condition-set: rat, po, 2 mg/kg

# query-smiles, bioavailability
records = [
    ("CCCNC(=O)c1cc(-c2ccc(Cl)cc2)c(-c2ccc(Cl)cc2Cl)nc1OCc1ccc(F)c(F)c1", "12%"),
]
